All values here come from patent US20230012273A1.

molecular target: T1, human SIRPβ1 extracellular domain + His-tag (NP_006056.2) (human, UniProt O00241 30-371); assay: SPR, Ab captured, ECD-His analyte
T1 construct: also called hSIRPβ1; HuSIRPβ1
T1 sequence (O00241 other isoform, or with tags, fused parts or gaps): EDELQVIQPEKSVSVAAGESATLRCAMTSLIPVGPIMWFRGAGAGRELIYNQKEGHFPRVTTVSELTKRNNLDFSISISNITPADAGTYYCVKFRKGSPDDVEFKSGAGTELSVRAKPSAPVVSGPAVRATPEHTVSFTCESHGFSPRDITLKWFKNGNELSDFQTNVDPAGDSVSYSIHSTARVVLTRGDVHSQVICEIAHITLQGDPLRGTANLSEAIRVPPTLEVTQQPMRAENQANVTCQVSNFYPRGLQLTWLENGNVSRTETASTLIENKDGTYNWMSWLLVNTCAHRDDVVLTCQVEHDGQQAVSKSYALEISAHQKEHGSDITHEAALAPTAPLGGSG
# Kd per entry
measuredEndpoint: Kd (nM)

[[record]]
binder = "Antibody A3 (antibody, human IgG1, kappa, L234A L235A, V domains shown) VH: EVQLVESGGGLVQPGGSLRLSCAASGFTLSSYDMHWVRQATGKGLEWVSAIGTAGDTYYTGSVKGRFTISRENAKNSLYLQMNSLRASDTAVYYCVRGGVWDDAFDIWGQGTMVTVSS VL: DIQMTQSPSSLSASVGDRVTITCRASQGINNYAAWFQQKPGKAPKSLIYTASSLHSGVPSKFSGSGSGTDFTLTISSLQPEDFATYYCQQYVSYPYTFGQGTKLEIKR"
unitstring = "nM"
testresult = 70.3

[[record]]
binder = "Antibody A2 (antibody, human IgG1, kappa, L234A L235A, V domains shown) VH: EVQLVESGGGLVQPGGSLRLSCAASGFTLSSYDMHWVRQATGKGLEWVSAIGTAGDTYYTGSVKGRFTISRENAKNSLYLQMNSLRAADTAVYYCVRGGVWDDAFDIWGQGTMVTVSS VL: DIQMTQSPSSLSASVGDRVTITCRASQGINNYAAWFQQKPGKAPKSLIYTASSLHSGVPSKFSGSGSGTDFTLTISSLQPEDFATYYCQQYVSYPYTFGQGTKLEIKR"
unitstring = "nM"
testresult = 77.5

